assay: 384-well plate pilot, post-Golgi transport modulator project, inhibition of yeast transport mutant growth (AID 636); conditions: absorbance 615 nm, about 18 h, stronger effect = higher value
readoutKind: inhibition (%)
Just the number in %, nothing appended.

Quick one: inhibition of O=C(CSCCSCC(=O)c1ccco1)c1ccco1 ?
0.13

Next: Cc1ccc2[nH]cc(C(=O)CN3CCC4(CC3)OCCO4)c2c1
-4.13

Next: CCOc1ccc(NCCC(=O)c2ccc3c(c2)OCO3)cc1
-6.71

Next: CN(C)S(=O)(=O)N1CCN(c2cccc(Cl)c2)CC1
0

Next: Cn1c(=O)cc(OCC(=O)N2CCN(c3cccc(C(F)(F)F)c3)CC2)c2ccccc21
-6.27

Next: COc1ccc(C)cc1NC(=O)c1nnn(Cc2cccc(F)c2)c1N
-3.47

Next: Cc1ccc(-c2nn3c(=O)c(C)nnc3s2)cc1
-2.97

Next: O=C(c1ccccc1)c1ccc2nc[nH]c2c1
0.26

Next: O=C(NCCCN1CCCC1=O)c1cncc(Br)c1
-6.67

Next: O=C(C1CCCO1)N1CCN(Cc2nc3ccccc3c(=O)[nH]2)CC1 (stereo unspecified)
-7.16

Next: CCc1ccc2nc(NC(=O)CSCc3c(C)noc3C)sc2c1
-0.67

Next: CCCn1c(NC(=O)C2COc3ccccc3O2)nc2ccccc21 (stereo unspecified)
-3.47

Next: O=C(OCC(=O)N1CCC(Cc2ccccc2)CC1)c1ccc[nH]c1=O
0.13

Next: Cc1ccc(Br)cc1S(=O)(=O)N1CCN(c2ccccc2)CC1
1.17

Next: COc1ccc(S(=O)(=O)Nc2ccc(S(=O)(=O)N3CCCCC3)cc2)cc1OC
0.13

Next: O=C(CCN1C(=O)C2C3C=CC(C3)C2C1=O)NCCc1ccccc1Cl (stereo unspecified)
-6.49

---

Give measured viability for each item. Keep answers brief.
assay: reversal of MRP1-mediated doxorubicin resistance, pilot screen, H69AR cells, doxorubicin co-treatment (AID 601); conditions: H69AR cells, CellTiter-Glo, 72 h; compound alone cytotoxicity; at 10 µM
Just the number in %, nothing appended.

Quick one: viability of COc1cc(CC(=O)NCc2ccc3c(c2)OCO3)cc(OC)c1OC ?
95.8

Next: CCOC(=O)c1nnn(CC(=O)Nc2cccc(F)c2)c1C(=O)OCC
96.2

Next: O=C(O)C1CC=CCC1C(=O)NCc1ccccc1 (stereo not drawn)
92.2

Next: Cc1ccc(S(=O)(=O)Cn2nnnc2CN(Cc2ccco2)CC2CCCO2)cc1 (stereo not drawn)
83.3

Next: O=C(CCn1nc(-c2ccccc2)ccc1=O)N1CCCC1
94.4

Next: Cc1nnc(SCc2cnc(-c3ccccc3)o2)[nH]c1=O
98

Next: CC(C)(C)n1ncc2c(=O)n(CC(=O)NCCc3ccccc3)cnc21
90.9

Next: CC(=O)c1cccc(NC(=O)N2C3CCC2CC(O)(c2cccnc2)C3)c1 (stereo not drawn)
106

Next: Cc1ccc(Nc2cc(C)nc3ncnn23)c(Cl)c1
97

Next: COc1ccc(OC)c(S(=O)(=O)N2c3ccccc3CC2C)c1 (stereo not drawn)
89.4

Next: Cc1ccccc1N1C(N)=NC(N)=NC1(C)C
90.6

Next: O=C(Cc1cccs1)Nc1nnc(CCc2ccccc2)s1
80.7

Next: O=C1CCCc2c1cc(C(=O)NCc1ccco1)c(=O)n2-c1ccc(Cl)cc1
93.5

Next: CCC(=O)OCCn1c(=O)c2cc3c(=O)n(CCOC(=O)CC)c(=O)c3cc2c1=O
87.2

Next: O=C(NCCc1ccccn1)c1ccc(COc2ccccc2)o1
102

Next: O=C(NCc1ccco1)C1CCN(C(=O)c2cc3sccc3n2Cc2ccc(F)cc2)CC1
67.1

Next: CCN(CC)CCCC1(CN)OCCc2ccccc21 (stereo not drawn)
83.8

Next: Cc1c(C(=O)Nc2cnccn2)oc2ccccc12
37.4

---

Give measured viability for each item. Keep answers brief.
assay: HUVEC growth inhibition – cell-based, human, primary screen (AID 575); conditions: HUVEC proliferation, CellTiter-Glo luminescence, 72 h; at 10 µM; stronger effect = lower value;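 also: 100% = median of untreated cell wells with 0.1% DMSO on each plate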
Just the number in %, nothing appended.

Quick one: viability of Cc1cccc(-c2noc(CCC(=O)Nc3ccccc3)n2)c1 ?
79.4

Next: CCn1c(C)nc2cc(C(=O)OCCC(F)(F)F)ccc21
108

Next: O=C(CN1C(=O)CSC1=O)N1CCc2ccccc2C1
73.4

Next: Cc1ccc(C)c(N(CC(=O)NCc2ccco2)C(=O)CCC(=O)Nc2ccccn2)c1
81.8

Next: COc1cc(OC)cc(-n2nnnc2SCC(=O)N2CCCC2)c1
94.9

Next: O=C(OCCCCN1C(=O)c2ccccc2C1=O)c1n[nH]c2ccccc12
76.4

Next: CCOC(=O)c1c(NC(=O)OC)sc(C(=O)N(C)C)c1C
112

Next: O=C(NC1CCCC1)c1ccc(S(=O)(=O)N2CCCC2)cc1
103

Next: COc1ccc(-c2nnc3ccc(SC(C(C)=O)C(C)=O)nn23)cc1OC
87.8

---

molecular target: Receptor tyrosine-protein kinase erbB-2 (Homo sapiens) (UniProt P04626); assay: reducers of endogenous Her2 protein level, primary screen, SKBR3 breast tumor cells, AlphaScreen, ATP viability (AID 461); conditions: 18-24 h, at 10 µM, stronger effect = lower value;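 also: lower value means less Her2 protein in the cells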
Sequence (P04626 whole entry, looked up): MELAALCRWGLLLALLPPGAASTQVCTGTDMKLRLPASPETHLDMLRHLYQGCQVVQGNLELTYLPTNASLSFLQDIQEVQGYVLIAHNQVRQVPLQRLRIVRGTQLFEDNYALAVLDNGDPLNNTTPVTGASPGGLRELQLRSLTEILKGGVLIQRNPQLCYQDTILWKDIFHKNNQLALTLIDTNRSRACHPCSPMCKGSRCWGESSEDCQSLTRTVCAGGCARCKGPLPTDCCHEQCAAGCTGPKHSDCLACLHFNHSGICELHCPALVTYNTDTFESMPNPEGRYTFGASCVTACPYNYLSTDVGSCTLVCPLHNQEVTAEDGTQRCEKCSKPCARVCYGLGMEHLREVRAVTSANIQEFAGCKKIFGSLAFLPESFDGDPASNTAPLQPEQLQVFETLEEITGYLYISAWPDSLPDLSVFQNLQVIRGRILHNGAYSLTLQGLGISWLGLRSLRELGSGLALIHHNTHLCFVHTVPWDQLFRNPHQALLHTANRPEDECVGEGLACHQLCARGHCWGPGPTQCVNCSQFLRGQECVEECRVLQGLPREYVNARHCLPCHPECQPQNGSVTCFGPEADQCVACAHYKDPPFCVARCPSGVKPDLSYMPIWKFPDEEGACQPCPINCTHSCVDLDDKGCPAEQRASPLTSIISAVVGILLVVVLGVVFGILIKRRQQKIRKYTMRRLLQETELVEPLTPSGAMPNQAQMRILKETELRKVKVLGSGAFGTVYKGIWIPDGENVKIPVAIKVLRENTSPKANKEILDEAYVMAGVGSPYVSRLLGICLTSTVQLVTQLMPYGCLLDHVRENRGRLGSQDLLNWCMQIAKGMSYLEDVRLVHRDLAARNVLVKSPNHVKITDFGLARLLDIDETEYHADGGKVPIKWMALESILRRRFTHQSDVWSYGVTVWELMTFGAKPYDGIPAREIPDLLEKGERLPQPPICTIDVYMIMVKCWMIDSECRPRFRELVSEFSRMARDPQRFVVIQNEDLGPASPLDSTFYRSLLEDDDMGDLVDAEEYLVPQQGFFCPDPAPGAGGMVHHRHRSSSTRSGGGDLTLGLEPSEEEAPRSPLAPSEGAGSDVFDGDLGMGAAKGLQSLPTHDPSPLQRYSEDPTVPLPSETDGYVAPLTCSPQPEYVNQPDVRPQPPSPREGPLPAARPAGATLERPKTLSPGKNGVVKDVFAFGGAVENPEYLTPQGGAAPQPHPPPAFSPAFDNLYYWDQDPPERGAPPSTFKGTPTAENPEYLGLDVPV
The threshold is 90%. Values of Her2 level beneath it are tagged 1 (yes); values meeting or exceeding it are tagged 0 (no).

# TODO verify Her2 level < 90% strictly for this compound: Cc1nc2sc(C(c3ccccc3)N3CCN(c4ccccc4F)CC3)c(O)n2n1 (stereo not drawn)
0 (no)

Next: Cc1ccc(C)c(/C(O)=C2\C(=O)C(=O)N(CCCN3CCOCC3)C2c2cccnc2)c1 (stereo not drawn)
0 (no)

Next: Cc1ccc(NC(=O)CSc2nnc(Cc3cccn3C)n2-c2ccc(F)cc2)cc1
1 (yes)

Next: CC(NCc1ccco1)C(=O)N1CCc2ccccc2C1 (stereo not drawn)
0 (no)

Next: N#Cc1nc(-c2cccs2)oc1NCCc1ccccc1
1 (yes)

Next: Nc1c(Sc2ccccc2)c(=O)[nH]c(=O)n1Cc1ccccc1
0 (no)

Next: N#CC1=C(N)SC(N)=C(C#N)C1CCc1ccccc1
1 (yes)

Next: O=C1NC(c2cccs2)Nc2ccccc21 (stereo not drawn)
1 (yes)

Next: CN(C)S(=O)(=O)c1ccc(C(=O)N2CCC(c3nc4ccccc4o3)CC2)cc1
1 (yes)

Next: C/C(N)=C(/C#N)C(=O)CSc1nnc(Nc2cccc(C)c2)s1
1 (yes)

---

assay: reversal of MRP1-mediated doxorubicin resistance, pilot screen, H69AR cells, doxorubicin co-treatment (AID 601); settings: H69AR cells, CellTiter-Glo, 72 h; compound alone cytotoxicity; at 10 µM
readoutKind: viability (%)
Just the number in %, nothing appended.

Quick one: viability of CC(C)(C)C1=C[C@@H](CO)C[C@@H](CO)C1 ?
87.3

Next: COc1ccc(C(NC(=O)C(C)(C)C)NC(=O)C(C)(C)C)cc1
91.7

Next: CCCn1c(N)c(C(=O)CSc2nnc(Cc3ccccc3)o2)c(=O)n(C)c1=O
84.6

---

assay: SK-BR-3 cell growth inhibitors, pilot screen, 24 h, human (AID 572); details: SK-BR-3 viability, CellTiter-Glo luminescence, at 10 µM, stronger effect = lower value;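 also: compound exposure lasted between 18 and 24 h rather than exactly 24 h; 100% = carrier-treated control wells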
The threshold is 90%. Values of viability beneath it are tagged Yes; values meeting or exceeding it are tagged No.

# TODO verify viability < 90% strictly for this compound: Nc1ccc(-c2ccc(N)cc2C(F)(F)F)c(C(F)(F)F)c1
No

Next: COC(=O)c1[nH]c2ccccc2c1NC(=O)CN1CCC(C(N)=O)(N2CCCCC2)CC1
No

Next: CCC1(c2ccc(F)cc2)NC(=O)N(CC(=O)c2ccc[nH]2)C1=O (stereo unspecified)
No

Next: FC(F)(F)c1cccc(N2CCN(c3nnnn3-c3ccccc3)CC2)c1
Yes

Next: COCCOc1nc2ccccc2nc1C
No

Next: COc1ccccc1N1C(=O)CC(Sc2nc(C)cc(C)n2)C1=O (stereo unspecified)
Yes

Next: CCOC(=O)C1CCCN(Cc2nc(N)nc(Nc3ccc(C)cc3)n2)C1 (stereo unspecified)
No

Next: CC(=O)c1ccc(OC(=O)c2cccs2)cc1
Yes

Next: O=C(NC1CCCC1)C1CC1c1ccccc1 (stereo unspecified)
No

---

assay: growth inhibitors of H69AR lung tumor, primary screen, human, duplicate replicates (AID 580); conditions: H69AR lung tumor cells viability, ATP luminescence, 72 h; at 10 µM; stronger effect = lower value;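 also: 100% = mean luminescence of untreated wells and 0% = no signal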
Give measured viability for each item. Keep answers brief.
Just the number in %, nothing appended.

Quick one: viability of Cc1ccc(C(=O)NC2CC3CCCC(C2)N3C(=O)NC2CCCCC2)cc1 (centres undefined) ?
98.5

Next: COCCN1C(=O)C(=O)/C(=C(/O)c2ccc(OC(C)C)cc2)C1c1cccnc1 (centres undefined)
92.6

Next: COC(=O)c1cccc(Oc2nc3c(c(=O)n(C)c(=O)n3C)n2C(C)C)c1
79.6

Next: Cc1cccc(N2CCN(C(=O)c3cc4c(=O)[nH]c5ccccc5c4n3C)CC2)c1C
95.9
